# Test system: 282377-053-R-J1-PDC complex spheroid viability
# assay info: Anticancer human tumor 282377-053-R-J1-PDC patient-derived colon adenocarcinoma cell line growth inhibition [POLQ]
# test context: second compound 10 µM; first compound 0.1 µM; stronger effect = lower value
viability, T/C reference
Give a bare numeral; the unit % is implied.

Worked examples, 2 compounds total:
compound | units text | viability, T/C
O=c1[nH]cc(F)c(=O)[nH]1 + Nc1ccc(C#CCN(C(=O)Cc2ncc(C(F)(F)F)cc2C(F)(F)F)c2ccc(F)cc2)nn1 | % | 128
CC1COCCN1c1cc(-c2ccnn2C)c2ccnc(-c3ccn[nH]3)c2n1 (stereo not drawn) + COC1C(OC(N)=O)C(O)C(Oc2ccc3c(O)c(NC(=O)c4ccc(O)c(CC=C(C)C)c4)c(=O)oc3c2C)OC1(C)C | % | 80.8

Exercise: viability, T/C for CC[C@@]1(O)C(=O)OCc2c1cc1n(c2=O)Cc2cc3c(CN(C)C)c(O)ccc3nc2-1 + Nc1ccc(C#CCN(C(=O)Cc2ncc(C(F)(F)F)cc2C(F)(F)F)c2ccc(F)cc2)nn1 ?
Solution: 127

====

# Test system: 282377-053-R-J1-PDC complex spheroid viability
# assay info: Anticancer human tumor 282377-053-R-J1-PDC cell line growth inhibition [POLQ];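 further: spheroids exposed to compounds for seven days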;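 on viability, T/C: 100% = DMSO vehicle control viability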
# test context: second compound 0.316 µM; first compound 0.0316 µM; stronger effect = lower value
reported endpoint: viability, T/C (%)
Give a bare numeral; the unit % is implied.

Worked examples, 3 compounds total:
compound | viability, T/C (%)
O=C(c1cc(Cc2n[nH]c(=O)c3ccccc23)ccc1F)N1CCN(C(=O)C2CC2)CC1 + COC1C(OC(N)=O)C(O)C(Oc2ccc3c(O)c(NC(=O)c4ccc(O)c(CC=C(C)C)c4)c(=O)oc3c2C)OC1(C)C | 107
CC1COCCN1c1cc(C2(O)CC3CCC(C2)O3)c2cnn(-c3ccn[nH]3)c2n1 (stereo unspecified) + Cc1cccc(N(C)C(=O)C2C(O)CCN2c2nc(C)cc(C(F)(F)F)c2C#N)c1 | 78.9
CCc1c2c(nc3ccc(O)cc13)-c1cc3c(c(=O)n1C2)COC(=O)[C@]3(O)CC + Cc1cccc(N(C)C(=O)C2C(O)CCN2c2nc(C)cc(C(F)(F)F)c2C#N)c1 | 54.4

Exercise: viability, T/C for Nc1ccn(C2OC(CO)C(O)C2(F)F)c(=O)n1 (stereo unspecified) + COC1C(OC(N)=O)C(O)C(Oc2ccc3c(O)c(NC(=O)c4ccc(O)c(CC=C(C)C)c4)c(=O)oc3c2C)OC1(C)C ?
Solution: 107

Exercise: Same question for CNCc1ccc(-c2[nH]c3cc(F)cc4c3c2CCNC4=O)cc1 + Cc1cccc(N(C)C(=O)C2C(O)CCN2c2nc(C)cc(C(F)(F)F)c2C#N)c1 please.
Solution: 99.1

Exercise: Same question for C=CCn1c(=O)c2cnc(Nc3ccc(N4CCN(C)CC4)cc3)nc2n1-c1cccc(C(C)(C)O)n1 + COC1C(OC(N)=O)C(O)C(Oc2ccc3c(O)c(NC(=O)c4ccc(O)c(CC=C(C)C)c4)c(=O)oc3c2C)OC1(C)C please.
Solution: 134

Exercise: Same question for COc1cccc(OCCCN)c1-c1cc(Nc2cnc(C#N)cn2)n[nH]1 + Nc1ccc(C#CCN(C(=O)Cc2ncc(C(F)(F)F)cc2C(F)(F)F)c2ccc(F)cc2)nn1 please.
Solution: 73.4

Exercise: Same question for CC1COCCN1c1cc(C2(S(C)(=N)=O)CC2)nc(-c2ccnc3[nH]ccc23)n1 (stereo unspecified) + Nc1ccc(C#CCN(C(=O)Cc2ncc(C(F)(F)F)cc2C(F)(F)F)c2ccc(F)cc2)nn1 please.
Solution: 116

====

# Tested on: 282377-053-R-J1-PDC complex spheroid viability
# assay info: Anticancer human tumor 282377-053-R-J1-PDC cell line growth inhibition [POLQ];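 further: spheroids exposed to compounds for seven days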
# test context: curve of first compound; second compound 0.1 µM
pIC50: −log10 of the molar value.
pIC50 reference

Worked examples, 10 compounds total:
compound | reported endpoint | assay value
Cn1ncnc1[C@H]1c2n[nH]c(=O)c3cc(F)cc(c23)N[C@@H]1c1ccc(F)cc1 + Nc1ccc(C#CCN(C(=O)Cc2ncc(C(F)(F)F)cc2C(F)(F)F)c2ccc(F)cc2)nn1 | pIC50 | < 7.00
CNCc1ccc(-c2[nH]c3cc(F)cc4c3c2CCNC4=O)cc1 + COC1C(OC(N)=O)C(O)C(Oc2ccc3c(O)c(NC(=O)c4ccc(O)c(CC=C(C)C)c4)c(=O)oc3c2C)OC1(C)C | pIC50 | < 5.00
CC1COCCN1c1cc(-c2ccnn2C)c2ccnc(-c3ccn[nH]3)c2n1 (stereo unspecified) + Nc1ccc(C#CCN(C(=O)Cc2ncc(C(F)(F)F)cc2C(F)(F)F)c2ccc(F)cc2)nn1 | pIC50 | 6.14
COc1cccc(OCCCN)c1-c1cc(Nc2cnc(C#N)cn2)n[nH]1 + Cc1cccc(N(C)C(=O)C2C(O)CCN2c2nc(C)cc(C(F)(F)F)c2C#N)c1 | pIC50 | 6.25
O=C(c1cc(Cc2n[nH]c(=O)c3ccccc23)ccc1F)N1CCN(C(=O)C2CC2)CC1 + Nc1ccc(C#CCN(C(=O)Cc2ncc(C(F)(F)F)cc2C(F)(F)F)c2ccc(F)cc2)nn1 | pIC50 | < 5.00
COc1cccc2c1C(=O)c1c(O)c3c(c(O)c1C2=O)CC(O)(C(=O)CO)CC3OC1CC(N)C(O)C(C)O1 (stereo unspecified) + Nc1ccc(C#CCN(C(=O)Cc2ncc(C(F)(F)F)cc2C(F)(F)F)c2ccc(F)cc2)nn1 | pIC50 | 5.68
CCc1cc2c(N3CCc4c(cc(Cn5ccnc5)cc4-c4cn(C)nc4C(F)(F)F)C3=O)cc(C)nc2c(OC)n1 + Nc1ccc(C#CCN(C(=O)Cc2ncc(C(F)(F)F)cc2C(F)(F)F)c2ccc(F)cc2)nn1 | pIC50 | < 5.00
O=C(c1cc(Cc2n[nH]c(=O)c3ccccc23)ccc1F)N1CCN(C(=O)C2CC2)CC1 + Cc1cccc(N(C)C(=O)C2C(O)CCN2c2nc(C)cc(C(F)(F)F)c2C#N)c1 | pIC50 | < 5.00
COc1ccc([C@@H](O)c2cc(-c3ncnc4cc(N5CCOCC5)ccc34)c(F)cc2Cl)nn1 + Cc1cccc(N(C)C(=O)C2C(O)CCN2c2nc(C)cc(C(F)(F)F)c2C#N)c1 | pIC50 | < 5.00
CC(C)n1c(=O)n(C)c2cnc3cc(F)c(-c4ccc(OCCCN5CCCCC5)nc4)cc3c21 + Cc1cccc(N(C)C(=O)C2C(O)CCN2c2nc(C)cc(C(F)(F)F)c2C#N)c1 | pIC50 | < 5.00

Exercise: pIC50 for CCc1cc2c(N3CCc4c(cc(Cn5ccnc5)cc4-c4cn(C)nc4C(F)(F)F)C3=O)ccnc2c(OC)n1 + Nc1ccc(C#CCN(C(=O)Cc2ncc(C(F)(F)F)cc2C(F)(F)F)c2ccc(F)cc2)nn1 ?
Solution: < 5.00

====

# Test system: 282377-053-R-J1-PDC complex spheroid viability
# assay info: Anticancer human tumor 282377-053-R-J1-PDC cell line growth inhibition [POLQ];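 further: spheroids exposed to compounds for seven days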;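 on viability, T/C: 100% = DMSO vehicle control viability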
# test context: second compound 0.0316 µM; first compound 3.16 µM; stronger effect = lower value
viability, T/C reference
Give a bare numeral; the unit % is implied.

Worked examples, 8 compounds total:
compound | assay value
COc1ccc([C@@H](O)c2cc(-c3ncnc4cc(N5CCOCC5)ccc34)c(F)cc2Cl)nn1 + Nc1ccc(C#CCN(C(=O)Cc2ncc(C(F)(F)F)cc2C(F)(F)F)c2ccc(F)cc2)nn1 | 88.3
CC(C)n1c(=O)n(C)c2cnc3cc(F)c(-c4ccc(OCCCN5CCCCC5)nc4)cc3c21 + COC1C(OC(N)=O)C(O)C(Oc2ccc3c(O)c(NC(=O)c4ccc(O)c(CC=C(C)C)c4)c(=O)oc3c2C)OC1(C)C | 112
C=CC(=O)N1CCN(c2nc(=O)n(-c3c(C)ccnc3C(C)C)c3nc(-c4c(O)cccc4F)c(F)cc23)C(C)C1 (stereo unspecified) + COC1C(OC(N)=O)C(O)C(Oc2ccc3c(O)c(NC(=O)c4ccc(O)c(CC=C(C)C)c4)c(=O)oc3c2C)OC1(C)C | 111
CNCc1ccc(-c2[nH]c3cc(F)cc4c3c2CCNC4=O)cc1 + Cc1cccc(N(C)C(=O)C2C(O)CCN2c2nc(C)cc(C(F)(F)F)c2C#N)c1 | 122
CC1COCCN1c1cc(C2(S(C)(=N)=O)CC2)nc(-c2ccnc3[nH]ccc23)n1 (stereo unspecified) + Nc1ccc(C#CCN(C(=O)Cc2ncc(C(F)(F)F)cc2C(F)(F)F)c2ccc(F)cc2)nn1 | 73.6
COc1cc2cc(C(=O)CCC(=O)O)sc2cc1OC + Nc1ccc(C#CCN(C(=O)Cc2ncc(C(F)(F)F)cc2C(F)(F)F)c2ccc(F)cc2)nn1 | 92.2
O=c1[nH]cc(F)c(=O)[nH]1 + COC1C(OC(N)=O)C(O)C(Oc2ccc3c(O)c(NC(=O)c4ccc(O)c(CC=C(C)C)c4)c(=O)oc3c2C)OC1(C)C | 74.6
CCc1cc2c(N3CCc4c(cc(Cn5ccnc5)cc4-c4cn(C)nc4C(F)(F)F)C3=O)cc(C)nc2c(OC)n1 + Nc1ccc(C#CCN(C(=O)Cc2ncc(C(F)(F)F)cc2C(F)(F)F)c2ccc(F)cc2)nn1 | 120

Exercise: viability, T/C for O=C(c1cc(Cc2n[nH]c(=O)c3ccccc23)ccc1F)N1CCN(C(=O)C2CC2)CC1 + Nc1ccc(C#CCN(C(=O)Cc2ncc(C(F)(F)F)cc2C(F)(F)F)c2ccc(F)cc2)nn1 ?
Solution: 121

Exercise: Same question for COc1cccc2c1C(=O)c1c(O)c3c(c(O)c1C2=O)CC(O)(C(=O)CO)CC3OC1CC(N)C(O)C(C)O1 (stereo unspecified) + Cc1cccc(N(C)C(=O)C2C(O)CCN2c2nc(C)cc(C(F)(F)F)c2C#N)c1 please.
Solution: 1.27

Exercise: Same question for O=C(c1cc(Cc2n[nH]c(=O)c3ccccc23)ccc1F)N1CCN(C(=O)C2CC2)CC1 + Cc1cccc(N(C)C(=O)C2C(O)CCN2c2nc(C)cc(C(F)(F)F)c2C#N)c1 please.
Solution: 106

Exercise: Same question for CC1COCCN1c1cc(-c2ccnn2C)c2ccnc(-c3ccn[nH]3)c2n1 (stereo unspecified) + Nc1ccc(C#CCN(C(=O)Cc2ncc(C(F)(F)F)cc2C(F)(F)F)c2ccc(F)cc2)nn1 please.
Solution: 42.6

Exercise: Same question for CCc1cc2c(N3CCc4c(cc(Cn5ccnc5)cc4-c4cn(C)nc4C(F)(F)F)C3=O)ccnc2c(OC)n1 + Nc1ccc(C#CCN(C(=O)Cc2ncc(C(F)(F)F)cc2C(F)(F)F)c2ccc(F)cc2)nn1 please.
Solution: 94.1

Exercise: Same question for CC1COCCN1c1cc(C2(S(C)(=N)=O)CC2)nc(-c2ccnc3[nH]ccc23)n1 (stereo unspecified) + COC1C(OC(N)=O)C(O)C(Oc2ccc3c(O)c(NC(=O)c4ccc(O)c(CC=C(C)C)c4)c(=O)oc3c2C)OC1(C)C please.
Solution: 74.9

Exercise: Same question for CC1COCCN1c1cc(-c2ccnn2C)c2ccnc(-c3ccn[nH]3)c2n1 (stereo unspecified) + COC1C(OC(N)=O)C(O)C(Oc2ccc3c(O)c(NC(=O)c4ccc(O)c(CC=C(C)C)c4)c(=O)oc3c2C)OC1(C)C please.
Solution: 26.9
